Values compiled from ChEMBL document CHEMBL3045465.

# target.or.system: GABA A receptor alpha-4/beta-3/gamma-2 (Homo sapiens, UniProt P18507+P28472+P48169)
# protocol.summary: Displacement of [3H]-Ro 15-4513 from Homo sapiens (human) recombinant GABAA alpha4beta3gamma2 receptor expressed in Ltk- cells after 1 hr by liquid scintillation counting
quantity: log10 Ki (log10 of the value in nM)

chemical.string: C#Cc1ccc2c(c1)C(=O)N1CCC[C@H]1c1c(C(=O)OCC(F)(F)F)ncn1-2
log10 Ki: 2.54

chemical.string: CC(C)(C)OC(=O)c1ncn2c1[C@@H]1CCCN1C(=O)c1cc(Br)ccc1-2
log10 Ki: 1.46

chemical.string: O=C(OCC(F)(F)F)c1ncn2c1[C@@H]1CCCN1C(=O)c1cc(Br)ccc1-2
log10 Ki: 2.46

chemical.string: C#Cc1ccc2c(c1)C(=O)N1CCC[C@H]1c1c(C(=O)OC(C)(C)C)ncn1-2
log10 Ki: 2.33

chemical.string: C=Cc1ccc2c(c1)C(=O)N1CCC[C@H]1c1c(C(=O)OCC(F)(F)F)ncn1-2
log10 Ki: 2.24

chemical.string: O=C(OCC(F)(F)F)c1ncn2c1[C@@H]1CCCN1C(=O)c1cc(-c3ccco3)ccc1-2
log10 Ki: 1.71

chemical.string: CC(C)(C)OC(=O)c1ncn2c1[C@@H]1CCCN1C(=O)c1cc(C#C[Si](C)(C)C)ccc1-2
log10 Ki: 2.24

====

# pKi annotations
# target.or.system: GABA-A receptor; alpha-2/beta-3/gamma-2 (Homo sapiens, UniProt P18507+P28472+P47869)
# Sequence (P18507 whole entry): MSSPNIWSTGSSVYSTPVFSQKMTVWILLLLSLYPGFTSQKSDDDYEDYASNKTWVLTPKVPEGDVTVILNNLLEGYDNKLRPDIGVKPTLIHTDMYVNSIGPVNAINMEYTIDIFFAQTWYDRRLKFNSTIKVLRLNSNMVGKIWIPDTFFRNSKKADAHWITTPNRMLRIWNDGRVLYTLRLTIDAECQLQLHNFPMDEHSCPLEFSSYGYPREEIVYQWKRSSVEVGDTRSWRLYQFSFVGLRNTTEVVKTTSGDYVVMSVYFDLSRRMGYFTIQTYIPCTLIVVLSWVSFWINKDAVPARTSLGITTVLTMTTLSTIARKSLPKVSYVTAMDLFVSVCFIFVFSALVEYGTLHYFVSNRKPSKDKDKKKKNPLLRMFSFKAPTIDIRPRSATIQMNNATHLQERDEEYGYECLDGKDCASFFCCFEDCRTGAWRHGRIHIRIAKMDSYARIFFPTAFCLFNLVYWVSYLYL
# Sequence (P28472 whole entry): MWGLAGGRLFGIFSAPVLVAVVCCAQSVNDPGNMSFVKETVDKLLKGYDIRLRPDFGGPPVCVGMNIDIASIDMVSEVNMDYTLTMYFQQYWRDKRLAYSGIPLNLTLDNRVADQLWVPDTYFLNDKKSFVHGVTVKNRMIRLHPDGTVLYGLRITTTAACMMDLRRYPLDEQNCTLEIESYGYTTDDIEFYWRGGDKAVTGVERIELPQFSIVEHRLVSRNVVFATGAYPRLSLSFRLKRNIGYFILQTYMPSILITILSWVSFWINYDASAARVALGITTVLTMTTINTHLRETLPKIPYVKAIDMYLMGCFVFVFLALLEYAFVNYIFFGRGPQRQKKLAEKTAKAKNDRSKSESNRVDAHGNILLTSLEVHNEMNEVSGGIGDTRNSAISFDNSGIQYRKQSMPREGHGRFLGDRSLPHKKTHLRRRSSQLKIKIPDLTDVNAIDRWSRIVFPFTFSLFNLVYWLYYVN
# Sequence (P47869 whole entry): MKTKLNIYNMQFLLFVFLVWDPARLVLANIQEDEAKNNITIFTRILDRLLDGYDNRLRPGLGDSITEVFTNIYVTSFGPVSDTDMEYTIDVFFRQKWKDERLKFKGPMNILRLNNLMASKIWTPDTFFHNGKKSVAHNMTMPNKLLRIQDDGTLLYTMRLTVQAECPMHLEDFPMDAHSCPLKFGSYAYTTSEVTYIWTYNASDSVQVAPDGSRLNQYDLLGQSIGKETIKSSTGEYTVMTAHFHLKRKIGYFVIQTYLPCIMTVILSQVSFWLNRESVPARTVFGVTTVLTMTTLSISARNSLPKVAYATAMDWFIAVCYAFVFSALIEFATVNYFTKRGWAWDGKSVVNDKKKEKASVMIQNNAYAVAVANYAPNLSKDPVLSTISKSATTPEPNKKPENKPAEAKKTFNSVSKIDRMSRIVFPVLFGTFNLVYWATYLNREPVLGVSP
# protocol.summary: Displacement of [3H]-Ro 15-1788 from Homo sapiens (human) recombinant GABAA alpha2beta3gamma2 receptor expressed in Ltk- cells after 1 hr by liquid scintillation counting
pKi: −log10 of the molar value.

chemical.string: C#Cc1ccc2c(c1)C(=O)N1CCC[C@H]1c1c(C(=O)OC(C)(C)C)ncn1-2
result.comparator: <
pKi: 6.48

chemical.string: O=C(OCC(F)(F)F)c1ncn2c1[C@@H]1CCCN1C(=O)c1cc(Br)ccc1-2
result.comparator: <
pKi: 6.48

chemical.string: CC(C)(C)OC(=O)c1ncn2c1[C@@H]1CCCN1C(=O)c1cc(-c3ccccc3)ccc1-2
result.comparator: =
pKi: 6.89

chemical.string: CC(C)(C)OC(=O)c1ncn2c1[C@@H]1CCCN1C(=O)c1cc(-c3ccco3)ccc1-2
result.comparator: =
pKi: 7.79

chemical.string: CC(C)(C)OC(=O)c1ncn2c1[C@@H]1CCCN1C(=O)c1cc(Br)ccc1-2
result.comparator: =
pKi: 6.91

chemical.string: O=C(OCC(F)(F)F)c1ncn2c1[C@@H]1CCCN1C(=O)c1cc(-c3ccco3)ccc1-2
result.comparator: =
pKi: 7.26

chemical.string: C=Cc1ccc2c(c1)C(=O)N1CCC[C@H]1c1c(C(=O)OC(C)(C)C)ncn1-2
result.comparator: =
pKi: 7.46

chemical.string: C=Cc1ccc2c(c1)C(=O)N1CCC[C@H]1c1c(C(=O)OCC(F)(F)F)ncn1-2
result.comparator: =
pKi: 7.26

chemical.string: O=C(OCC(F)(F)F)c1ncn2c1[C@@H]1CCCN1C(=O)c1ccccc1-2
result.comparator: =
pKi: 7.47
